Assay: NCI Yeast Anticancer Drug Screen. Data for the rad14 strain (AID 159);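 note: 0% = growth of vehicle-treated control cultures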
Conditions: S. cerevisiae rad14 strain growth inhibition; at 11.0 µM; hits give high values
Experimental: Growth inhibition of yeast strains with defined genetic alterations is measured as a screen for potential anti-cancer activity. Selected strains with alterations in DNA damage repair or cell cycle control were exposed to compounds and growth inhibition was measured relative to vehicle treated controls. The strain used in this assay is rad14
Compounds without any hit were thinned out: in the full panel of roughly 79,000, 15% have a hit.
Criterion: growth inhibition meeting or surpassing 10%. Met: YES. Not met: NO.

>  <compound>
CCN(CC)CCCNc1ccc([N+](=O)[O-])c2nc3ccc(OC)cc3c(NCCCN(CC)CC)c12

>  <label value>
NO

$$$$
>  <compound>
O=C(Nc1ccc(Cl)cc1)c1cc2cc(N=Nc3ccccc3Cl)ccc2oc1=O

>  <label value>
YES

$$$$
>  <compound>
C[n+]1c(-c2ccc(/C=N/NC(=O)c3ccc(C(=O)N/N=C/c4ccc(-c5cn6ccccc6[n+]5C)cc4)cc3)cc2)cn2ccccc21

>  <label value>
YES

$$$$
>  <compound>
C/C(=N\Sc1ccccc1)c1ccccc1O

>  <label value>
NO

$$$$
>  <compound>
CCC(=O)C1=C(O)c2cc(OC)ccc2CC1C(=O)OC (stereo not given)

>  <label value>
YES

$$$$
>  <compound>
NC(N)=NS(=O)(=O)c1ccc(Nc2c3ccccc3nc3c(C(=O)NC(CO)(CO)CO)cccc23)cc1

>  <label value>
NO

$$$$
>  <compound>
NC(=O)NC1C(c2ccccc2)=C1c1ccccc1

>  <label value>
YES

$$$$
>  <compound>
Cc1c(Cl)c(C)c(Cl)c(O)c1Cl

>  <label value>
YES

$$$$
>  <compound>
COC1=CCC23C(=O)C=CC(=O)C2(C1)C(=O)c1ccccc1C3=O (stereo not given)

>  <label value>
NO

$$$$
>  <compound>
CCCCCCCN(CCCCCCC)CC(=O)c1ccc2cc(Cl)c3ccccc3c2c1

>  <label value>
YES

$$$$

* * *

The entries below come with measured growth inhibition values attached.
Assay: NCI Yeast Anticancer Drug Screen. Data for the rad50 strain (AID 155);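 note: 0% = growth of vehicle-only cultures of the same strain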
Conditions: S. cerevisiae rad50 strain growth inhibition; at 3.7 µM; hits give high values
Method: Growth inhibition of yeast strains with defined genetic alterations is measured as a screen for potential anti-cancer activity. Selected strains with alterations in DNA damage repair or cell cycle control were exposed to compounds and growth inhibition was measured relative to vehicle treated controls. The strain used in this assay is rad50
The panel holds about 79,000 compounds, 15% with a hit somewhere; the sample as a whole holds those more often.

>  <compound>
COC1/C=C\C=C(/C)C(=O)NC2=CC(=O)C(=O)C(=C2O)CC(C)CC(OC)C(O)C(C)/C=C(\C)C1OC(N)=O (stereo not drawn)

>  <unit spec>
%

>  <growth inhibition>
40

$$$$
>  <compound>
O=C1C(=C2CCCC2)CCC1CN1CCCCC1 (stereo not drawn)

>  <unit spec>
%

>  <growth inhibition>
8

$$$$
>  <compound>
CCOC(=O)/C(=C\c1ccc(F)cc1)C(C)=O

>  <unit spec>
%

>  <growth inhibition>
19

$$$$
>  <compound>
CC(C)N(CCCNc1c2ccccc2nc2cccc([N+](=O)[O-])c12)C(C)C

>  <unit spec>
%

>  <growth inhibition>
82

$$$$
>  <compound>
CCN(CC)C(=S)N/N=C(\C)c1ccccc1O

>  <unit spec>
%

>  <growth inhibition>
-13

$$$$
>  <compound>
C/C(=N/NC(=S)Nc1ccccc1C)c1ccccn1

>  <unit spec>
%

>  <growth inhibition>
5

$$$$
>  <compound>
COC(=O)/C(C#N)=C\NC(=S)C(N)=S

>  <unit spec>
%

>  <growth inhibition>
30

$$$$
>  <compound>
CCC[CH2][Sn]([CH2]CCC)([CH2]CCC)/[C](=C/[Si](C)(C)c1ccccc1)c1ccc2c(c1)OCO2

>  <unit spec>
%

>  <growth inhibition>
72

$$$$
>  <compound>
Cc1cccc(C)c1NC(=O)C(C#N)C1=C(Cl)C(=O)c2ccccc2C1=O (stereo not drawn)

>  <unit spec>
%

>  <growth inhibition>
23

$$$$
>  <compound>
O=C(NCCCCN(CCCNC(=O)C(F)(F)F)Cc1ccccc1)C(F)(F)F

>  <unit spec>
%

>  <growth inhibition>
33

$$$$
>  <compound>
COC(=O)C(Cl)(Cl)N=Nc1c(Cl)cc(Cl)c(C)c1Cl

>  <unit spec>
%

>  <growth inhibition>
46

$$$$
>  <compound>
CCCC/C=C1\CCC(CN2CCCC2)C1=O (stereo not drawn)

>  <unit spec>
%

>  <growth inhibition>
25

$$$$
>  <compound>
NC(N)=NS(=O)(=O)c1ccc(Nc2c3ccccc3nc3c(C(=O)NC(CO)(CO)CO)cccc23)cc1

>  <unit spec>
%

>  <growth inhibition>
9

$$$$
>  <compound>
O=C1NC(c2cccc(OCc3ccccc3)c2)Nc2ccccc21 (stereo not drawn)

>  <unit spec>
%

>  <growth inhibition>
12

$$$$
>  <compound>
CC(C)OP(=O)(OC(C)C)C(=NCCO)NNc1ccc([N+](=O)[O-])cc1

>  <unit spec>
%

>  <growth inhibition>
-3

$$$$
>  <compound>
O=c1c2ccccc2nc(-c2ccc(Cl)cc2)n1O

>  <unit spec>
%

>  <growth inhibition>
93

$$$$
>  <compound>
CC1CN(/N=C\c2ccc([N+](=O)[O-])o2)C(=O)O1 (stereo not drawn)

>  <unit spec>
%

>  <growth inhibition>
46

$$$$
>  <compound>
O=C1C=C(NCCc2cc(Br)c(O)c(Br)c2)C(=O)c2ncccc21

>  <unit spec>
%

>  <growth inhibition>
24

$$$$
>  <compound>
CC1CCN(CCC(=O)c2ccc([N+](=O)[O-])cc2)CC1

>  <unit spec>
%

>  <growth inhibition>
13

$$$$
>  <compound>
CC1C(c2ccccc2)SC(=N)N1C (stereo not drawn)

>  <unit spec>
%

>  <growth inhibition>
-46

$$$$
>  <compound>
CC12CCC(CC(=O)/C1=C(/Br)I)C2(C)C (stereo not drawn)

>  <unit spec>
%

>  <growth inhibition>
-3

$$$$
>  <compound>
CCN(CC)CCNc1ccc2nc(C)n3c4ccc(OC)cc4c(=O)c1c23

>  <unit spec>
%

>  <growth inhibition>
45

$$$$
>  <compound>
CC1(C2CC2)C(C#N)(C#N)C1(C#N)C#N

>  <unit spec>
%

>  <growth inhibition>
3

$$$$

Value source: PubChem BioAssay (NCI)
